- TARGET_OF_ASSAY: JAK3 (Homo sapiens, UniProt P52333)
- Construct: purchased Thermo fisher PV3855
- Sequence (P52333 781-1124 limits assumed): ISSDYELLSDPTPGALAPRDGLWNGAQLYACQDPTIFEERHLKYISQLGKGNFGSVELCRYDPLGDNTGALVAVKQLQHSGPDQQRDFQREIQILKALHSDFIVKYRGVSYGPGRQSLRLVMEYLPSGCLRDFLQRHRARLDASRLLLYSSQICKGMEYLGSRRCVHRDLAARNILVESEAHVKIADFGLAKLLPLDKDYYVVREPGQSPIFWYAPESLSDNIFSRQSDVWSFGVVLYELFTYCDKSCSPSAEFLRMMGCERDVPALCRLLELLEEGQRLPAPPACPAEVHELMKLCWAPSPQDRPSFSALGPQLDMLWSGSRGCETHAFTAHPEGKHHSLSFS
- EXPERIMENT_NOTES: JAK3 biochemical assay (ADP-GLO Kinase Assay)
- MEASUREMENT_SETUP: B*: testing performed in a first testing facility; read-out: JAK3 IC50 (nM) Relative, B*
Form field: IC50 (one value per entry).

Below, 4 compounds whose answers are already recorded.
Incoming: Look up IC50: COc1cc2c(cc1Nc1ncc3ccc(=O)n(-c4ccccc4)c3n1)CN(C)CC2
Outgoing: > 1000 nM

Incoming: Look up IC50: COc1cc2c(cc1Nc1ncc(Cl)c(-n3nc(CC(=O)O)c4ccccc43)n1)CN(C)CC2
Outgoing: > 1000 nM

Incoming: Look up IC50: COc1cc2c(cc1Nc1ncc(Cl)c(-c3cn(CC(=O)O)c4ccccc34)n1)CN(C)CC2
Outgoing: 500 to 1000 nM

Incoming: Look up IC50: COc1cc2c(cc1Nc1ncc(Cl)c(N3CC(C(N)=O)c4ccccc43)n1)CN(C)CC2 (stereo not shown)
Outgoing: ≤ 100 nM

Next:
Incoming: Look up IC50: CN1CCc2cc(F)c(Nc3ncc(Cl)c(N4CC(C)(CC(=O)O)c5ccccc54)n3)cc2C1 (stereo not shown)
Outgoing: ≤ 100 nM

Incoming: Look up IC50: COc1cc2c(cc1Nc1ncc(Cl)c(N3C[C@](C)(C(=O)O)c4ccccc43)n1)CN(C)CC2 (single isomer, unassigned)
Outgoing: > 1000 nM

Incoming: Look up IC50: COc1cc2c(cc1Nc1ncc(Cl)c(N3CCc4c(C(F)F)cccc43)n1)CN(C)CC2
Outgoing: > 1000 nM
